Molecular target: T1, human RXFP1 (human, UniProt Q9HBX9 1-757)
T1 sequence (looked up): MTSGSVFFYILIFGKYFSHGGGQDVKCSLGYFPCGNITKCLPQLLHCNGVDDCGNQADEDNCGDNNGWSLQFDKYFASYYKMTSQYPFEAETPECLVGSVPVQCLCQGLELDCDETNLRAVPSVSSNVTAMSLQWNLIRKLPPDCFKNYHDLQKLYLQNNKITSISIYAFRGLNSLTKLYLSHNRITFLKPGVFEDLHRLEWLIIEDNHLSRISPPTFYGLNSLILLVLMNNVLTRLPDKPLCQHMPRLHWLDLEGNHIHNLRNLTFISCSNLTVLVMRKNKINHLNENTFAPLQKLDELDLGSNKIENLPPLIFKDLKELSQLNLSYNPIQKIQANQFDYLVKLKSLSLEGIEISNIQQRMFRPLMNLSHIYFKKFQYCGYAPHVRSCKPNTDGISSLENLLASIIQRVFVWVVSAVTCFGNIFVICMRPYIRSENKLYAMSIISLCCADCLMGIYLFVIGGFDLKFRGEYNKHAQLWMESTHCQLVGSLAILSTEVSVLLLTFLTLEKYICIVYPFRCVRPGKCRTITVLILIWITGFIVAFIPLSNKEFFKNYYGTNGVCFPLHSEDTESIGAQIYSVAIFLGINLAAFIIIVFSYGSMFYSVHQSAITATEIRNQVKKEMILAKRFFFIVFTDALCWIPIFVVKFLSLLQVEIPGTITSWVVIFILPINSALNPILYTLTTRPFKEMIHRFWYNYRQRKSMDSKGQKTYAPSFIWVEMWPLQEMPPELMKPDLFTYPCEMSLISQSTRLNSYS
Assay: cell-based or functional assay
Numbered stars: 1 amine (or outer) side, 2 acyl side, 3 side chain; on linkers, the order of the positions; unused ones are H or OH. Square brackets hold non-standard residues; d marks the D form. Side chains are listed from the residue outwards. * marks the point of attachment. TTDS = 4-[3-[2-[2-(3-aminopropoxy)ethoxy]ethoxy]propylamino]-4-oxo-butanoyl; γGlu = O=C(O)[C@H](CCC(=O)[*:2])N[*:1]; Stearoyl = CCCCCCCCCCCCCCCCCC(=O)*; Palmitoyl = CCCCCCCCCCCCCCCC(=O)*; Aib = CC(C)(N)C(=O)O
metric-name: EC50 (nM), OVCAR 5 cells (cAMP)

# annotated cases, reported EC50 (nM), OVCAR 5 cells (cAMP) shown
[[record]]
binder = "Ac-LEGREKVRAK(Ac)I[Aib][Aib]EGK([TTDS-TTDS-γGlu-γGlu-γGlu-Palmitoyl])STWS[Aib]RKK(Ac)-NH2 [Relaxin peptide analogue of SEQ ID NO: 4]"
metric_name = "EC50 (nM), OVCAR 5 cells (cAMP)"
numeric_value = 1.5

[[record]]
binder = "Ac-LEGREKVRAK(Ac)I[Aib][Aib]EGK([TTDS-TTDS-γGlu-γGlu-γGlu-Stearoyl])STWS[Aib]RKK(Ac)-NH2 [Relaxin peptide analogue of SEQ ID NO: 6]"
metric_name = "EC50 (nM), OVCAR 5 cells (cAMP)"
numeric_value = 0.27


I. Ac-LEGRERVRAK(Ac)I[Aib][Aib]EGK([TTDS-TTDS-TTDS-TTDS-γGlu-γGlu-γGlu-Palmitoyl])STWS[Aib]RRK(Ac)-NH2 [Relaxin peptide analogue of SEQ ID NO: 75]
II. Ac-LEGREKVRAK(Ac)I[Aib][Aib]EGK([TTDS-TTDS-TTDS-γGlu-γGlu-γGlu-Palmitoyl])STF[Aib]KRAK(Ac)-NH2 [Relaxin peptide analogue of SEQ ID NO: 15]
Please indicate which item has the smaller measured EC50 (nM), OVCAR 5 cells (cAMP): I versus II # answer = label of selected item
I
